STUDY_SYSTEM: Mycobacterium thermoresistible (Mtr) LpqY (Mycolicibacterium thermoresistibile, UniProt G7CES0)
Sequence (G7CES0 29-471): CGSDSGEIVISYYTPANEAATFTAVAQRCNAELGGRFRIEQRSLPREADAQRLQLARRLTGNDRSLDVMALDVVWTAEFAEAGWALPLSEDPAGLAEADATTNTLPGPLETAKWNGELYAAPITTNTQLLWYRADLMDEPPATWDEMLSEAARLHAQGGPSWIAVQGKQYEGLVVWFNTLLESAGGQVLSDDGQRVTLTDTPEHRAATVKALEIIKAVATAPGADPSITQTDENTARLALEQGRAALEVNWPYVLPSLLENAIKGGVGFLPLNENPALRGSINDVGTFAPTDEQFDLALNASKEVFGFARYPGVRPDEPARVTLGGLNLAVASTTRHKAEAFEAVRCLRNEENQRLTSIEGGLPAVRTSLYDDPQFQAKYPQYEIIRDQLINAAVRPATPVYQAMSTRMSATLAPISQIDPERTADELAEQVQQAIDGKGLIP
Format: binding
EXPERIMENTAL_CONTEXT: single dose MST screen against LpqY
Kindly state Pathogen Box screen signal/noise ratio for each of the entries shown.
Answers are plain numbers.

Below, 5 compounds whose answers are already recorded.
| SMILES_REPRESENTATION | Pathogen Box screen signal/noise ratio |
| --- | --- |
| CCCCc1ccc(NC(=O)Nc2ccc(O[C@H]3CCCC[C@@H]3N(C)c3ccccc3)c(F)c2)cc1 | 0.0 |
| O=C(c1ccco1)N(CCCn1ccnc1)c1nc2c(Cl)cccc2s1 | 1.4 |
| O=C(Nc1nnc(S)s1)c1cc(Br)ccc1Cl | 0.9 |
| Clc1ccc(CCNc2cc(-c3ccccc3)nc3ncnn23)cc1 | 3.0 |
| O=C(N[C@H](Cc1ccccc1)C(=O)Nc1ccccc1N1CCOCC1)c1cccs1 | 1.6 |

List reported Pathogen Box screen signal/noise ratio for each of these compounds:
1. Cc1nc(-c2cccc(NCc3ccccc3)c2)[nH]c1C
2. Nc1ncc(-c2ccc(C(F)(F)F)nc2)cc1-c1ccc(C(F)(F)F)nc1
3. CCc1ccc([C@@H]2C[C@H](C(F)(F)F)n3ncc(C(=O)NCc4ccc(OC)cc4)c3N2)cc1
4. O=C(C1CCN(c2nnc(-n3cccc3)s2)CC1)N1CCC(Cc2ccccc2)CC1
5. COc1cccc(-n2nnnc2S(=O)(=O)Cc2ccccc2)c1

Solution:
1.4
2.0
1.9
0.661
0.952

Value source: paper PMC9579956
